Quick reference for pEC50 among some binders
biological target: T1, human PD-L1-His (Sino Biological, Cat #10084-H08H) (human, UniProt Q9NZQ7 19-238); assay: ELISA, coated human PD-L1-His
T1 construct: Bought protein; also called human PD-L1 ECD-His; recombinant human PD-L1-His protein; not shown: His tag
T1 sequence (Q9NZQ7 19-238): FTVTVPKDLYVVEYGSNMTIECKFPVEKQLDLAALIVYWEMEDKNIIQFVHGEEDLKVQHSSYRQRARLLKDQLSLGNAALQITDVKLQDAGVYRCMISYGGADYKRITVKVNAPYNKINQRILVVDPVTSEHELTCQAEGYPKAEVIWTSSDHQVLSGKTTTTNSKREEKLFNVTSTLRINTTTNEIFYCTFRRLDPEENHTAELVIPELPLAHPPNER
FYI, pEC50 means -log10 of a concentration in mol per litre.

INSERT INTO results (binder, reportedmeasurement) VALUES
  ('57B10 (antibody, human IgG1, V domains shown) VH: QEQLEESGGGLVQPEGSLTLTCTASGFSFSDDYYMSWVRQAPGKGLEWIASIYTGSLNTYYATWAKGRFTISLTSSTTVTLQMTSLTAADTATYFCARRNKNADWGHFDLWGPGTLVTVSS VL: YDMTQTPASVEVAVGGTVTIKCQASQSISTALAWYQQKPGQPPKLLIYAASTLASGVPSRFRGSGSGTDFTLTISDLECADAATYYCQQGWTVSSLDNAFGGGTEVVAM', 10.73),
  ('27A2 (antibody, human IgG1, V domains shown) VH: QEQLEESGGGLVQPEGSLTLTCTASGFSFSSNHYMSWVRQAPGKGLEWIGSIGVGSGITDYASWAKGRFTISKASSTTLTLQMTTLTAADTAIYFCARWTSGGGGFGLWGPGTLVTVSS VL: QVLTQTSSPVSAAVGGTVTINCQSSQTIYSDYLFWYQQTPGQPPKLLIYQTSTLASGVPSRFKGSGSGTEFTLTISEIQCDDAATYYCQGYYSGYIWTFGGGTEVVVR', 10.84),
  ('32E2 (antibody, human IgG1, V domains shown) VH: QEQLEESGGDLVKPEGSLTLTCTASGFSFSSSYYMSWVRQAPGMGLEWIASISGGVTDNAYYASWAKGRFTVSKTSSTTVTLQLTSLTAADTATYFCARDSSSGYFFLLWGPGTLVTVSS VL: LVMTQTPSSVSAAVGGTVTINCQASQNIYSNLAWYQQKPGQRPKLLIFGASNLRSGVPSRFKGSGSGTEYTLTISDLECADAATYYCQEGYSIGNVDNPFGGGTEVVVK', 9.97);

Turning now to a further binder:
For 33E8 (antibody, human IgG1, V domains shown) VH: QSLEESGGDLVKPGASLTLTCTASGFYFSSGYDMSWVRQAPGKGLEWIASIFTTSGSTWYANWAKGRFTISKTSSTTVTLQMTSLTDADTATYFCTKDGVGSFYMNLWGPGTLVTVSS VL: LVMTQTPASVEVAVGGTVTIKCQASQTIGSNLAWYQQRPGQPPKLLIYKAFTLASGVSSRFKGSGSGTQFTLTISGVECADAATYYCQQGATRINIDNAFGGGTEVVVK , write its pEC50. 10.40
